# assay_target: UniProtKB G5EBV6
# Sequence (G5EBV6 whole entry): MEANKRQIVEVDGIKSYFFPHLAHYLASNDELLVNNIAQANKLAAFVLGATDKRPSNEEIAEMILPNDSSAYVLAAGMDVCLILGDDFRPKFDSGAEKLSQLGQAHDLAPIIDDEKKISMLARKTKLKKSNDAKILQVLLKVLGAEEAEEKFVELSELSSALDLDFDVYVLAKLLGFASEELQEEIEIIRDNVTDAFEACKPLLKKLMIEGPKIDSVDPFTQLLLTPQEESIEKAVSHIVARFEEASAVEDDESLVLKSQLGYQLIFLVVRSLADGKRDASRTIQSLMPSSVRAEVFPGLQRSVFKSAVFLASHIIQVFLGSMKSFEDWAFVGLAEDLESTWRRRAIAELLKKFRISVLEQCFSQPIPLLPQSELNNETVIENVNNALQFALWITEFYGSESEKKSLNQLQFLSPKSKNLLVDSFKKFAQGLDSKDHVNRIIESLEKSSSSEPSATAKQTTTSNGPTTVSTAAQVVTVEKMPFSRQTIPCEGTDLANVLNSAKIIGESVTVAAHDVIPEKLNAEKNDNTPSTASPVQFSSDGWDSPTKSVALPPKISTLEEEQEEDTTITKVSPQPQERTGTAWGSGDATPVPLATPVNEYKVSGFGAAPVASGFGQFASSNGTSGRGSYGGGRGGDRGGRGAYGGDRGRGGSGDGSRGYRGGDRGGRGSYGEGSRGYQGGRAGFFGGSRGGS
# method_summary: Fluorescence imaging of dye partitioning in PGL-3 condensates (I-in, I-out)
# Format: physicochemical
# condition_parameters: I-in:I-out; Day 1; 10 μM dye
Counter-ions that a name gives are not always drawn.
reported_property: Ratio of intensity inside:outside PGL-3 Condensates Day 1
Output: the number by itself.

Q. Let me know recorded Ratio of intensity inside:outside PGL-3 Condensates Day 1 for O=C1OC2(c3ccc(O[C@@H]4O[C@H](CO)[C@H](O)[C@H](O)[C@H]4O)cc3Oc3cc(O[C@@H]4O[C@H](CO)[C@H](O)[C@H](O)[C@H]4O)ccc32)c2ccccc21 [Dye 12, Fluorescein di(β-D-galacto-pyranoside)] , thanks.
A. 2.1

Q. Let me know recorded Ratio of intensity inside:outside PGL-3 Condensates Day 1 for COC(=O)c1ccccc1-c1c2ccc(=N)cc-2oc2cc(N)ccc12.Cl , thanks.
A. 1.1

Q. Let me know recorded Ratio of intensity inside:outside PGL-3 Condensates Day 1 for O=c1cc(C(F)(F)F)c2ccc(O)cc2o1 [Dye 2, 7-Hydroxy-4-(trifluoromethyl)-coumarin] , thanks.
A. 1.0

Q. Let me know recorded Ratio of intensity inside:outside PGL-3 Condensates Day 1 for N=C(N)c1ccc(-c2cc3ccc(C(=N)N)cc3[nH]2)cc1 , thanks.
A. 1.9

Q. Let me know recorded Ratio of intensity inside:outside PGL-3 Condensates Day 1 for O=C([O-])c1ccccc1C1=c2cc3c4c(c2Oc2c1cc1c5c2CCCN5CCC1)CCC[N+]=4CCC3 [Dye 17, Rhodamine 101 inner salt] , thanks.
A. 1.8

Q. Let me know recorded Ratio of intensity inside:outside PGL-3 Condensates Day 1 for O=C(CCCC[C@@H]1SCC2NC(=O)NC21)NCCNC(=O)c1ccc(-c2c3ccc(=O)cc-3oc3ccc(O)cc23)c(C(=O)O)c1 (stereo partly drawn) , thanks.
A. 1.1

Q. Let me know recorded Ratio of intensity inside:outside PGL-3 Condensates Day 1 for O=C(O)c1cc2cc3c4c(c2oc1=O)CCCN4CCC3 , thanks.
A. 1.5

Q. Let me know recorded Ratio of intensity inside:outside PGL-3 Condensates Day 1 for CC(=O)N[C@H]1[C@H](Oc2ccc3c(c2)Oc2cc(O)ccc2C32OC(=O)c3ccccc32)O[C@H](CO)[C@H](O)[C@@H]1O (stereo partly drawn) , thanks.
A. 1.0

Q. Let me know recorded Ratio of intensity inside:outside PGL-3 Condensates Day 1 for N#CC1=c2cc3c4c(c2Oc2c1cc1c5c2CCCN5CCC1)CCC[N+]=4CCC3 , thanks.
A. 3.4

====

# assay_target: FUS-SNAP condensates (Homo sapiens)
# Sequence (P35637 whole entry): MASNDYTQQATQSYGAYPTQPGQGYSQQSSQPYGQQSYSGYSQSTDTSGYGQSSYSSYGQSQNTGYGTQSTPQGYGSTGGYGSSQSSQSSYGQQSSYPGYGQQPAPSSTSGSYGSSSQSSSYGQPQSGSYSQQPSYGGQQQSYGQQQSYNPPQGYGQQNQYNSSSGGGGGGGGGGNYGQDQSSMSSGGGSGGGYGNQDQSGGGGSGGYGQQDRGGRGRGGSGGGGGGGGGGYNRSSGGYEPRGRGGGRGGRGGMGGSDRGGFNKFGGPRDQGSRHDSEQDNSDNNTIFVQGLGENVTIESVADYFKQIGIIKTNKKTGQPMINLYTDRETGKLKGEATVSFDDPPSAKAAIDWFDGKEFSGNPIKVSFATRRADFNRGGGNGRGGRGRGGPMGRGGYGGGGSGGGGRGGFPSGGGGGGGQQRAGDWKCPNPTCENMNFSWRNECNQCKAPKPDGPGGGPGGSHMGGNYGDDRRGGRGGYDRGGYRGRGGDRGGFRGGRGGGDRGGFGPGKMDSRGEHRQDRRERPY
# method_summary: Fluorescence imaging of dye partitioning in FUS-SNAP condensates (I-in, I-out)
# Assay type: physicochemical
# condition_parameters: inside FUS-SNAP condensate; 10 μM dye, 5 μM protein; image 2; one day of experiments
Counter-ions that a name gives are not always drawn.
Hi! Could you tag entries with Intensity Inside with Dye 2 below 4000 as rule met, and those at or above as rule not met? Much appreciated.

Q. Say whether its Intensity Inside with Dye 2 is strictly beneath 4000. Entry: CC(=O)c1cc2cc3c4c(c2oc1=O)CCCN4CCC3 [Dye 4, Coumarin 334]
A. rule not met

Q. Say whether its Intensity Inside with Dye 2 is strictly beneath 4000. Entry: O=C([O-])c1ccccc1C1=c2cc3c4c(c2Oc2c1cc1c5c2CCCN5CCC1)CCC[N+]=4CCC3 [Dye 17, Rhodamine 101 inner salt]
A. rule not met

Q. Say whether its Intensity Inside with Dye 2 is strictly beneath 4000. Entry: O=C1OC2(c3ccc(O)cc3Oc3cc(O)ccc32)c2ccccc21 [Dye 6, Fluorescein]
A. rule not met

Q. Say whether its Intensity Inside with Dye 2 is strictly beneath 4000. Entry: N=C(N)c1ccc(-c2cc3ccc(C(=N)N)cc3[nH]2)cc1 [Dye 1, DAPI]
A. rule met

Q. Say whether its Intensity Inside with Dye 2 is strictly beneath 4000. Entry: O=C(O)c1cc2cc3c4c(c2oc1=O)CCCN4CCC3 [Dye 3, Coumarin 343]
A. rule met

Q. Say whether its Intensity Inside with Dye 2 is strictly beneath 4000. Entry: O=C(CCCC[C@@H]1SCC2NC(=O)NC21)NCCNC(=O)c1ccc(-c2c3ccc(=O)cc-3oc3ccc(O)cc23)c(C(=O)O)c1 (some centres unmarked) [Dye 13, Biotin-4-Fluorescein]
A. rule not met

Q. Say whether its Intensity Inside with Dye 2 is strictly beneath 4000. Entry: CCN(CC)c1ccc2c(-c3ccccc3C(=O)O)c3ccc(=[N+](CC)CC)cc-3oc2c1 [Dye 16, Rhodamine B]
A. rule met

Q. Say whether its Intensity Inside with Dye 2 is strictly beneath 4000. Entry: CC(=O)Oc1ccc2c(c1)Oc1cc(OC(C)=O)ccc1C21OC(=O)c2ccccc21 [Dye 9, Fluorescein diacetate]
A. rule not met

Q. Say whether its Intensity Inside with Dye 2 is strictly beneath 4000. Entry: COC(=O)c1ccccc1-c1c2ccc(=N)cc-2oc2cc(N)ccc12.Cl [Dye 14, Rhodamine 123]
A. rule met

Q. Say whether its Intensity Inside with Dye 2 is strictly beneath 4000. Entry: CC(=O)N[C@H]1[C@H](Oc2ccc3c(c2)Oc2cc(O)ccc2C32OC(=O)c3ccccc32)O[C@H](CO)[C@H](O)[C@@H]1O (some centres unmarked) [Dye 5]
A. rule met

Q. Say whether its Intensity Inside with Dye 2 is strictly beneath 4000. Entry: O=C1OC2(c3ccc(O[C@@H]4O[C@H](CO)[C@H](O)[C@H](O)[C@H]4O)cc3Oc3cc(O[C@@H]4O[C@H](CO)[C@H](O)[C@H](O)[C@H]4O)ccc32)c2ccccc21 [Dye 12, Fluorescein di(β-D-galacto-pyranoside)]
A. rule met

Q. Say whether its Intensity Inside with Dye 2 is strictly beneath 4000. Entry: N#CC1=c2cc3c4c(c2Oc2c1cc1c5c2CCCN5CCC1)CCC[N+]=4CCC3 [Dye 18, Rhodamine 800]
A. rule not met

Q. Say whether its Intensity Inside with Dye 2 is strictly beneath 4000. Entry: CC/N=c1/cc2oc3cc(NCC)c(C)cc3c(-c3ccccc3C(=O)NCCOCCOCCN)c-2cc1C.O=C(O)C(F)(F)F [Dye 15]
A. rule met

Q. Say whether its Intensity Inside with Dye 2 is strictly beneath 4000. Entry: O=c1cc(C(F)(F)F)c2ccc(O)cc2o1 [Dye 2, 7-Hydroxy-4-(trifluoromethyl)-coumarin]
A. rule met
